System: OVCAR-4 ovarian
assay.procedure: NCI tumour cell line growth inhibition, 48 h; in the data active means GI50 below about 0.43 µM; inactive means the rest
Outcomes: active, inactive

[[record]]
compound = "COc1ccc2nc3cc(Cl)ccc3c(NCCCNCCO)c2c1"
category_label = "inactive"

[[record]]
compound = "O=C(Nc1ccc(Oc2ccc3nc(NC(=O)c4ccco4)[nH]c3c2)cc1)Nc1cc(C(F)(F)F)ccc1F"
category_label = "inactive"

[[record]]
compound = "c1cc(N[C@@H]2CCNC2)nc(-c2cnc3ccc(-c4cn[nH]c4)cn23)c1"
category_label = "inactive"

[[record]]
compound = "CC1CC2C3CCC4=CC(=O)C=CC4(C)C3(F)C(O)CC2(C)C1(O)C(=O)COP(=O)(O)O (stereo not given)"
category_label = "inactive"

[[record]]
compound = "NS(=O)(=O)c1ccc(Nc2cc(-c3ccc(O)c(F)c3)[nH]n2)cc1"
category_label = "inactive"

[[record]]
compound = "COc1cc2cc(Oc3ccc(NC(=O)Nc4cc(C(F)(F)F)cc(C(F)(F)F)c4)cc3)c(C)nc2cc1OCCN1CCOCC1"
category_label = "inactive"

[[record]]
compound = "O=C(CS(=O)(=O)c1nc2ccccc2nc1-c1ccccc1)Nc1ccc(F)cc1"
category_label = "inactive"

[[record]]
compound = "CCN(CC)c1ccc2nc3ccc(N=Nc4ccc(N(C)C)cc4)cc3[n+](-c3ccccc3)c2c1"
category_label = "active"

[[record]]
compound = "COc1cc(CNCCCCCCN2C(=O)c3cccc4cccc(c34)C2=O)ccc1O"
category_label = "inactive"

[[record]]
compound = "CN1CCN(CC(=O)N(C)c2ccc(N=C(c3ccccc3)c3c(O)[nH]c4ccc(C#N)cc34)cc2)CC1"
category_label = "inactive"

[[record]]
compound = "Clc1nccc2c(-c3csc(-c4c[nH]c5ccc(Br)cc45)n3)c[nH]c12"
category_label = "inactive"

[[record]]
compound = "COc1ccc(-c2cc(-c3ccc(Nc4nc(Nc5ccccc5)nc(Nc5ccc(Cl)cc5)n4)cc3)nc(N)n2)cc1"
category_label = "inactive"

[[record]]
compound = "O=C1Nc2ccc(Cl)cc2/C1=C\\c1c(-c2ccc(Cl)cc2)nc2sc(C3CC3)nn12"
category_label = "inactive"

[[record]]
compound = "CCOC(=O)c1c(-c2ccccc2)[n+](=O)c2cc(Cl)c(Cl)cc2n1[O-]"
category_label = "inactive"

[[record]]
compound = "CN(C)c1ccc(/C=C\\c2ccnc3ccccc23)cc1"
category_label = "inactive"


---

Tested on: SK-MEL-28 melanoma
assay.procedure: NCI tumour cell line growth inhibition, 48 h; in the data active means GI50 below about 0.43 µM; inactive means the rest
Outcomes: active, inactive

[[record]]
molecule = "COc1cc2c(c(OC)c1OC)-c1ccc(NN(C(=O)c3ccccc3)C(=O)c3ccccc3)c(=O)cc1[C@@H](NC(C)=O)CC2 (tested in a mixture with another compound)"
category_label = "inactive"

[[record]]
molecule = "c1cc(N[C@@H]2CCNC2)nc(-c2cnc3ccc(-c4cn[nH]c4)cn23)c1"
category_label = "inactive"

[[record]]
molecule = "O=C1/C(=C/c2ccc(Cl)c(Cl)c2)CN(C(=O)C(Cl)Cl)C/C1=C\\c1ccc(Cl)c(Cl)c1"
category_label = "active"

[[record]]
molecule = "O=C1NC(=NCCc2ccc(F)cc2)S/C1=C\\c1ccc2ncccc2c1"
category_label = "inactive"

[[record]]
molecule = "CC(C)(C)c1cc(C(=O)Nc2ccccc2C(=O)NCCN)cc(C(C)(C)C)c1"
category_label = "inactive"

[[record]]
molecule = "CCOCC1(COCC)CCC(c2[nH]ncc2CN(C)CCNC)CC1"
category_label = "inactive"

[[record]]
molecule = "CN1CCN(CC(=O)N(C)c2ccc(N=C(c3ccccc3)c3c(O)[nH]c4ccc(C#N)cc34)cc2)CC1"
category_label = "inactive"

[[record]]
molecule = "Cc1cc(=O)oc2ccc(OC/C=C3\\CCC(=O)O3)cc12"
category_label = "inactive"

[[record]]
molecule = "C=C1C(=O)O[C@H]2[C@H]1CC/C(COC(=O)c1cc(OC)c(OC)c(OC)c1)=C\\CC[C@@]1(C)O[C@@H]21"
category_label = "inactive"


---

Tested on: HCT-15 colon
assay.procedure: NCI tumour cell line growth inhibition, 48 h; in the data active means GI50 below about 0.43 µM; inactive means the rest
Outcomes: active, inactive

[[record]]
compound = "NS(=O)(=O)c1ccc(Nc2cc(-c3ccc(O)c(F)c3)[nH]n2)cc1"
category_label = "inactive"

[[record]]
compound = "O=C1NC(=NCc2ccccc2Cl)S/C1=C\\c1ccc2ncccc2c1"
category_label = "inactive"

[[record]]
compound = "COc1cc(/C=C/C(=O)c2cccc(-n3cc(-c4cc(OC)c(OC)c(OC)c4)[nH]c3=O)c2)cc(OC)c1OC"
category_label = "inactive"

[[record]]
compound = "COC1(CC[C@@H](C)COC2OC(CO)C(O)C(O)C2O)O[C@H]2C[C@H]3[C@@H]4CC=C5C[C@@H](OC6OC(CO)C(OC7OC(C)C(O)C(O)C7O)C(O)C6OC6OC(C)C(O)C(O)C6O)CC[C@]5(C)[C@H]4CC[C@]3(C)[C@H]2[C@@H]1C (some centres not stated)"
category_label = "inactive"

[[record]]
compound = "NC(N)=N/N=C/c1c(-c2ccsc2)nc2n1CCS2"
category_label = "inactive"

[[record]]
compound = "O=C1CC(c2c[nH]c3ccc(F)cc23)C(=O)N1 (configuration not stated)"
category_label = "inactive"

[[record]]
compound = "CCCCCC(=O)N[C@@H](c1ccco1)[C@@H](O)C(=O)O[C@H]1C[C@@]2(O)[C@@H](OC(=O)c3ccccc3)[C@@H]3[C@]4(OC(C)=O)CO[C@@H]4C[C@H](O)[C@@]3(C)C(=O)[C@H](OC(C)=O)C(=C1C)C2(C)C"
category_label = "active"


---

Below, each entry is listed alongside its reported TGI.
Tested on: HT29 colon
assay.procedure: NCI tumour cell line growth inhibition, 48 h
recorded.metric: TGI

[[record]]
given_smiles = "COc1cc(/C=C/C(=O)c2cccc(-n3cc(-c4cc(OC)c(OC)c(OC)c4)[nH]c3=O)c2)cc(OC)c1OC"
tested_on = "HT29 colon"
meas_value = "7.03 µM"

[[record]]
given_smiles = "C[C@]12C=CC(=O)C=C1CC[C@@H]1[C@@H]2CC[C@@]2(C)[C@H]1CC[C@]2(O)C(N)=O"
tested_on = "HT29 colon"
meas_value = "> 100 µM"

[[record]]
given_smiles = "NC(=O)c1ccc2c(c1)-c1nc-2nc2[n-]c(nc3nc(nc4[n-]c(n1)c1ccc(C(N)=O)cc41)-c1ccc(C(N)=O)cc1-3)c1ccc(C(N)=O)cc21.[Co+2]"
tested_on = "HT29 colon"
meas_value = "> 50 µM"

[[record]]
given_smiles = "CC(C)Oc1c(C2(c3ccccc3)SCCCS2)c(=O)c1=O"
tested_on = "HT29 colon"
meas_value = "> 100 µM"


---

Tested on: MDA-MB-435
Outcomes: YES = active, NO = inactive

[[record]]
molecule = "CCN1CCN(c2nc(C)cc(N(CCCNc3ccnc4cc(Cl)ccc34)Cc3ccc4c(c3)OCO4)n2)CC1"
category_label = "NO"

[[record]]
molecule = "Clc1nccc2c(-c3csc(-c4c[nH]c5ccc(Br)cc45)n3)c[nH]c12"
category_label = "NO"

[[record]]
molecule = "NC(N)=N/N=C/c1c(-c2ccsc2)nc2n1CCS2"
category_label = "NO"

[[record]]
molecule = "O=C1/C(=C/c2ccc(Cl)c(Cl)c2)CN(C(=O)C(Cl)Cl)C/C1=C\\c1ccc(Cl)c(Cl)c1"
category_label = "YES"

[[record]]
molecule = "CCOC(=O)[C@@H](C)C[C@H](Cc1ccccc1)NC(=O)c1csc([C@@H](C[C@H](C(C)C)N(C)C(=O)[C@@H](NC(=O)[C@H]2CCCCN2C)C(C)(C)CC)OC(C)=O)n1"
category_label = "YES"

[[record]]
molecule = "CC(C)(C)c1cc(C(=O)Nc2ccccc2C(=O)NCCN)cc(C(C)(C)C)c1"
category_label = "NO"

[[record]]
molecule = "CO[C@H]1C[C@@H]2CC[C@@H](C)[C@@](O)(O2)C(=O)C(=O)N2CCCC[C@H]2C(=O)O[C@H]([C@H](C)C[C@@H]2CC[C@@H](OC(=O)C(C)(CO)CO)[C@H](OC)C2)CC(=O)[C@H](C)/C=C(\\C)[C@@H](O)[C@@H](OC)C(=O)[C@H](C)C[C@H](C)\\C=C/C=C/C=C/1C"
category_label = "NO"

[[record]]
molecule = "CC1CC2C3CCC4=CC(=O)C=CC4(C)C3(F)C(O)CC2(C)C1(O)C(=O)COP(=O)(O)O (configuration not stated)"
category_label = "NO"

[[record]]
molecule = "N#CCn1c(=O)c(Oc2ccc(F)cc2F)cc2cnc(NC3CCOCC3)nc21"
category_label = "NO"

[[record]]
molecule = "COc1cc(/C=C/C(=O)c2cccc(-n3cc(-c4cc(OC)c(OC)c(OC)c4)[nH]c3=O)c2)cc(OC)c1OC"
category_label = "NO"

[[record]]
molecule = "CN(C)c1ccc(/C=C\\c2ccnc3ccccc23)cc1"
category_label = "NO"

[[record]]
molecule = "Cc1cc(=O)oc2ccc(OC/C=C3\\CCC(=O)O3)cc12"
category_label = "NO"

[[record]]
molecule = "O=C1NC(=NCCc2ccc(F)cc2)S/C1=C\\c1ccc2ncccc2c1"
category_label = "NO"

[[record]]
molecule = "CSc1ccc(C2=C(c3ccccc3)C(=O)OC2)cc1"
category_label = "YES"

[[record]]
molecule = "c1ccc(-c2oc(-c3ccccc3)c(CN3CCCCC3)c2CN2CCCCC2)cc1"
category_label = "NO"

[[record]]
molecule = "CSC1=NC(=Nc2c(C)cccc2C)C2(CCC(C(C)(C)C)CC2)N1c1ccc(Cl)cc1 (configuration not stated)"
category_label = "NO"

[[record]]
molecule = "O=C1NC(=S)S/C1=C\\c1cn(-c2ccccc2)nc1-c1ccccc1"
category_label = "NO"

